Measured OD, binding to direct coated heparanase accompanies every entry in the list below.
# ASSAY_TARGET: T1, recombinant human heparanase (active, 8 and 50 kDa sub-units, from baculovirus-infected Hi5 cells) (human, UniProt Q9Y251 36-109; Q9Y251 158-543)
# T1 construct: domain: 8 kDa sub-unit;domain: 50 kDa sub-unit; also called soluble recombinant human heparanase; recombinant Hpa1
# T1 sequence (looked up) 1: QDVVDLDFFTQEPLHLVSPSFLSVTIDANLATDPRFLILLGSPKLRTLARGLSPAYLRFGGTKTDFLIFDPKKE
# T1 sequence (looked up) 2: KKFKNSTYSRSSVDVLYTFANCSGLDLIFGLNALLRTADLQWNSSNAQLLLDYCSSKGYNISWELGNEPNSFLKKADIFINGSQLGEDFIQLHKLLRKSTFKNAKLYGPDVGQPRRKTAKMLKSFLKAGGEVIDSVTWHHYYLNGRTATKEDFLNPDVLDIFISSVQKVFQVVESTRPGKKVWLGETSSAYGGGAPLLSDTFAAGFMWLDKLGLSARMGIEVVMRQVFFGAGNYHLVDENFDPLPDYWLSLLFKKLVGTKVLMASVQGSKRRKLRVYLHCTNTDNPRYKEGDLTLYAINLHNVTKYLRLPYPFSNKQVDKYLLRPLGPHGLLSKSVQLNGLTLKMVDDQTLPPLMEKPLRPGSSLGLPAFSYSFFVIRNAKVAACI
# METHOD_NOTES: ELISA, hybridoma supernatant on directly coated recombinant human heparanase
Please give a number only; it is taken to be in OD units.

In the examples that follow, each entry is paired with its recorded OD, binding to direct coated heparanase.
binder="monoclonal antibody 16E1.1 (antibody, V domains shown, Fully human (XenoMouse) antibody) VH: QVQLQESGPGLVKPSQTLSLTCTVSGGSISSGGYYWSWIRQHPGKGLEWIGFIYYSGSTFYNPSLKSRITISVDTSKNQFSLKLSSVTAADTAVYYCARPYSSSWYGAFDIWGQGTMVTVSS VL: SYELTQPPSVSVSPGRTASITCSEDKLGNKYAYWYQQKPGQSPVLVIYQDSERPSGIPERFSGSNSGNTATLTISGTQAMDEADYYCQAWDSSTVVFGGGTKLTVL" data_value=0.15
binder="monoclonal antibody 14H12.3 (antibody, V domains shown, Fully human (XenoMouse) antibody) VH: QVQLVESGGGVVQPGRSLRLSCAASGFTFSSYGMHWVRQAPGKGLEWVAVIWYDGSNKDYADSVKGRFTISRDNSKNTLYLQMNSLRAEDTAVYYCAREGSTSWTDYYGMDVWGQGTTVTVSS VL: SYELTQPPSVSVSPGQTARITCSGDALPKRYAYWYQQKSGQALVLVIYEDSKRPSGIPERFSGSSSGTMATLTISGAQVEDEADYYCYSIDSSGNHGVFGGGTKLTVL" data_value=3.69
binder="monoclonal antibody 16G1.1 (antibody, V domains shown, Fully human (XenoMouse) antibody) VH: QVQLVESGGGVVQPGRSLRLSCAASGFTFSSYGMHWVRQAPGKGLEWVAVIWYDGSNKYYADSVKGRFTISRDNSKNTLNLQMNSLRAEDTAVYYCGRDPGTYHYYYHGMDVWGQGTTVTVSS VL: YIVMTQSPLSLPVTPGEPASISCRSSQSLLHSNGYNFLDWYLQKPGQSPQLLIYLGSNRASGVPDRFSGSGSGTDFTLKINRVEAEDVGVYYCMQALQTPITFGQGTRLEIK" data_value=3.63
binder="monoclonal antibody 10E9.1 (antibody, V domains shown, Fully human (XenoMouse) antibody; also called mAb 10E9.1; ATCC PTA-9489) VH: QVQLVQSGAEVKKPGASVKVSCKVSGYSLTELSIHWVRQAPGKGLEWMGGFDPEDGEIIFAQKFQGRVTLTEDISLDTAYMEVSSLRSEDTAVYYCATEGHDSGDYVGYYYYGLDVWGQGTTVTVSS VL: DIQMTQSPSSLSASVGDRVTITCRASQDIRNFLAWYQQKPGKLPKLLIYAASTLQSGVPSRFSGSGSGTDFTLTISSLQPEDVASYYCQSHNSVPFTFGPGTKVDIR" data_value=0.2
binder="monoclonal antibody 15A1.2 (antibody, V domains shown, Fully human (XenoMouse) antibody; also called ATCC PTA-9491) VH: QVQLVQSGAEVKKPGASVKVSCKVSGYTLTELSMHWVRQAPGKGLEWMGGFDPEDGETIFAQKFQGRVTMTEDTSTDTAYMELSSLRSEDTAVYYCATGLRFLEWFLWGWDVWGQGTTVTVSS VL: DIQMTQSPSSVSASVGDRVTITCRASQGISNWLAWYQQTPGKAPQLLIYGASSLQSGVPSRFSGSGSGTDFTLTISSLQPEDFATYYCQQADSFPPTFGQGTKVEIK" data_value=0.08

Input: So what's the measured OD, binding to direct coated heparanase for this one? monoclonal antibody 15A11.1 (antibody, V domains shown, Fully human (XenoMouse) antibody; also called ATCC PTA-9490) VH: QVQLVQSGAEVKKPGASVKVSCKVSGDTLTELSMHWVRQTPGKGLEWMGGFDPEDGETIYAQKFQGRVTMTGDTSTDTAYMELSSLRSEDTAVYYCATEGDYGDSEEYYYYYGMDVWGQGTTVTVSS VL: DIQMTQSPSSLSASVGDRVTITCRASQGISNYLAWYQQKPGKVPKLLIYAASTLQSGVPSRFSGSGSGTDFTLTISSLQPEDVATYYCQKYNRAPFTFGPGTKVDIK
Output: 0.07

Input: So what's the measured OD, binding to direct coated heparanase for this one? monoclonal antibody 7B9.1 (antibody, V domains shown, Fully human (XenoMouse) antibody) VH: QVQLVESGGGVVQPGRSLRLSCAASGFTFSSYGMHWVRQAPGKGLEWVAVIWYDGSNKYYADSVKGRFTISRDNSKNTLYLQMNSLRAEDTAVYYCAREGAPYSSSDAFDIWGQGTMVTVSS VL: QSVLTQPPSVSGAPGQRVTISCTGSSSNIGANYDVHWYQQLPGTAPKLLIYGDNNRPSGVPDRFSGSKSGTSASLAITGLQAEDEADYYCQSYDSSLSGSVFGGGTKLTVL
Output: 3.78
